Every entry's value here was drawn from paper PMC10247153.

Biological target: T1, PHD1 (KDM5C residues 318–378) (human, UniProt P41229-1 318-378)
T1 chain: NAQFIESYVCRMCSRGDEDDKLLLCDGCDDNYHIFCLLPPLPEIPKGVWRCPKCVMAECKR
Test: NMR; lower limit, from I361
No end group written: not given here. Me3 = trimethyl; Me2 = dimethyl
OBSERVABLE: Kd

| BINDER | Kd |
| --- | --- |
| ARTK(Me2)QTARKSTGGKAPRK [H3K4me2 (1–18) peptide] | > 900 µM |

Please look at the following binder next.
What the record says about ARTK(Me3)QTARKSTGGKAPRK [H3K4me3 (1–18) peptide] : Kd is > 1500 µM
